- study-system: CFH18-20 (human complement factor H CCP18-20) with myc tag and His-tag (human) (UniProt P08603)
- Sequence (P08603 1046-1231): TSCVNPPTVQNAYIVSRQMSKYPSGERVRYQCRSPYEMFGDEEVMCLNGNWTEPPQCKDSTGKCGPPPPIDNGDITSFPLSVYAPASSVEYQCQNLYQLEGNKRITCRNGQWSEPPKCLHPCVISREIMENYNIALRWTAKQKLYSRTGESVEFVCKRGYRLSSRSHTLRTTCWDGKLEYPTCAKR
- assay-text: ITC; CFH18-20 in the cell (5-15 uM), VHH4 or mutants in the syringe (50-150 uM), 20 injections; PBS pH 7.4, 25 °C; iTC200

binder | dH
VHH4 Y117A (VHH) VHH: QVQLVESGGGLVQAGGSLRLSCAASGLTVDDYAIGWFRQAPGKEREGVSCISSSNGSTYYADSVKGRFTISSDNAKNTAYLQMNSLKPEDTAVYYCAAAVSPNLECGTGPFGIYASAYGMDYWGQGTQVTVSS | -28.1 kcal/mol
VHH4 P110A (VHH) VHH: QVQLVESGGGLVQAGGSLRLSCAASGLTVDDYAIGWFRQAPGKEREGVSCISSSNGSTYYADSVKGRFTISSDNAKNTAYLQMNSLKPEDTAVYYCAAAVSPNLECGTGAFGIYASYYGMDYWGQGTQVTVSS | -29.8 kcal/mol
